Reported conditions: buffer; pH 7.4; 200.0 µM
Metric: solubility kinetic

OCc1ccccc1N=Cc1cccnc1 : > 31.8 µg/mL
Cc1ccc(NC(=O)CC(=O)Nc2ccc(C)cc2)cc1 : < 0.3 µg/mL
Cn1ccnc1SCC(=O)Nc1cccc(C#N)c1 : > 40.8 µg/mL
CCN1CCOC(CC(=O)Nc2ccc([N+](=O)[O-])cc2)C1=O (configuration not stated) : 40.2 µg/mL
S=C(NCc1ccccc1)NC1CCCCC1 : > 37.3 µg/mL
O=C(OCC(=O)N1CCCC1=O)C1COc2ccccc2O1 (configuration not stated) : > 45.8 µg/mL
CCSc1ccccc1C(=O)Nc1ccc2c(c1)OCO2 : 13.8 µg/mL
O=C(CSc1nncs1)NC1CCCCCCC1 : > 42.8 µg/mL

I would be grateful if you could share the reported solubility kinetic for "O=[N+]([O-])c1ccc(CS(=O)(=O)c2ccc(Cl)cc2)cc1" .
3.4 µg/mL

Please look up its solubility kinetic: "N#C/C(=C/c1ccc(O)cc1)C(=O)NCc1ccc(Cl)cc1"
4.3 µg/mL

So what's the measured solubility kinetic for this one? NC(=O)C1CCCN(C(=O)CCC(=O)c2cccs2)C1 (configuration not stated)
> 44.2 µg/mL

Name the recorded solubility kinetic for "Cc1ccc(C(=O)N2CCc3ccccc32)cc1[N+](=O)[O-]" .
< 0.3 µg/mL

---

Reported conditions: buffer; pH 7.4; 200.0 µM
Let's look at some molecules and their measured solubility kinetic.
Answer in µg/mL, number only, no unit symbol.

// known answers, use as guide
O=C(Cc1ccccc1[N+](=O)[O-])OCN1C(=O)c2ccccc2C1=O : 13.7
CC1Cc2ccccc2N1CC(=O)NC(=O)NC1CCCCC1 (configuration not stated) : 24.6
COc1ccc(NC(=O)C(Cc2ccccc2)n2cccc2)cc1 (configuration not stated) : 26.5
CC12CCC(C(=O)Nc3cc(F)ccc3F)(CC1=O)C2(C)C (configuration not stated) : 32

Now, please, on to the next molecule.
Given CCCOc1ccc(C(=O)NCC2OCCc3ccccc32)cc1OC (configuration not stated) , state its recorded solubility kinetic.
4.7

---

Reported conditions: buffer; pH 7.4; 200.0 µM
Metric: solubility kinetic

Nc1ccc(C(=O)Nc2nccs2)cc1 : > 32.9 µg/mL
Cc1ccc(NC2=NC(c3ccc(F)cc3)n3c(nc(C)cc3=O)N2)cc1 (stereo unspecified) : 5 µg/mL
CCN/C=C(\C#N)S(=O)(=O)c1ccc(Br)cc1 : 34.8 µg/mL
NS(=O)(=O)c1ccc(Nc2nc(-c3cccnc3)cs2)cc1 : < 0.2 µg/mL
COc1ccc(OS(=O)(=O)c2c(C)noc2C)cc1 : 29.3 µg/mL

Any idea what its solubility kinetic is? The compound is "CN(C)C(=O)c1cc(C(=O)c2ccccc2)c[nH]1"
> 36.3 µg/mL

---

Reported conditions: buffer; pH 7.4; 200.0 µM
Listed below: solubility kinetic values for each entry.

Examples from the recorded data:
CC1CC(c2ccccc2)=Nc2ccccc2N1 (configuration not stated) : 26.2 µg/mL
N#Cc1c(-c2ccccc2)cc(-c2ccccc2)nc1SCCC(=O)O : > 54.1 µg/mL
Cc1cccc(C(=O)OCC(=O)NCCCc2ccccc2)c1O : 12.3 µg/mL

Endpoint output: solubility kinetic of "CC(=O)c1cccc(NC(=O)CNC(=O)Cc2cccc3ccccc23)c1" . Value?
8.4 µg/mL

So what does the record say about solubility kinetic for "Cn1c(SCC(=O)Nc2ccccc2[N+](=O)[O-])nnc1C(F)(F)F" ?
> 54.2 µg/mL

Find the recorded solubility kinetic belonging to "O=C(Nc1ccccc1)Oc1cccc(Br)c1" and report it.
35.9 µg/mL

# solubility kinetic lookup, item "O=C(NC(=S)NCc1cccnc1)c1cc(Br)ccc1Cl"
0.9 µg/mL

Given the entry "O=C(CNC(=O)c1ccc(Br)o1)NCc1ccc(F)cc1" , report its measured solubility kinetic.
> 53.3 µg/mL

Would you kindly share the measured solubility kinetic for "CCOc1ncccc1C(=O)OCC(=O)c1ccccc1" ?
39.9 µg/mL
